Assay: recombinant UMI read abundance after kanamycin selection (control-corrected) (log10(CPM+1)); higher = more efficient recombination; extreme values may be limits of the assay; sequences stand for … in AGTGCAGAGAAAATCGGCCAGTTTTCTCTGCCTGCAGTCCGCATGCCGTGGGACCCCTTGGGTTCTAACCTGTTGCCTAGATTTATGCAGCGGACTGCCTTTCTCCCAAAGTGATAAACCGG…AGGTTGGTTTCACT; site = the 11-nt donor;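 further: IS621 bridge recombinase in Escherichia coli cells against a fixed T5 target plasmid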
A collection of sequences and their measured recombinant UMI read abundance (log10)
// return a plain number; no unit text

Please review the following examples before continuing.
biopolymer_sequence | recombinant UMI read abundance (log10)
ACTCCAACATGGACCGGTTTTCCCGGTAATCCGTATTTGTC (site ACTCCAACTGA) | 1.34
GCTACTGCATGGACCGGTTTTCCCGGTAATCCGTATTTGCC (site GCTATTGCTGG) | 0
ACTTAGACATGGACCGGTTTTCCCGGTAATCCGTATTTGGG (site ACTTAGACTCC) | 0.0876
TTCTCCTCATGGACCGGTTTTCCCGGTAATCCGTATTTGTT (site TTCTCCTCTAA) | 0.151
ACCTAGACATGGACCGGTTTTCCCGGTAATCCGTATTTGGC (site ACCTAGACTCC) | 0.0128
CCCATATCATGGACCGGTTTTCCCGGTAATCCGTATTTGCC (site CCCATATCTGA) | 0

For GGGACATCATGGACCGGTTTTCCCGGTAATCCGTATTTGGA (site GGGACATCTTC) the sequence record lists recombinant UMI read abundance (log10) as 1.52

For GATTATCCATGGACCGGTTTTCCCGGTAATCCGTATTTGTT (site GATTATCCTAG) the sequence record lists recombinant UMI read abundance (log10) as 0

For CCACGAACATGGACCGGTTTTCCCGGTAATCCGTATTTGTC (site TCACGAACTGA) the sequence record lists recombinant UMI read abundance (log10) as 0

----------
Assay: recombinant UMI read abundance after kanamycin selection (control-corrected) (log10(CPM+1)); higher = more efficient recombination; extreme values may be limits of the assay; sequences stand for … in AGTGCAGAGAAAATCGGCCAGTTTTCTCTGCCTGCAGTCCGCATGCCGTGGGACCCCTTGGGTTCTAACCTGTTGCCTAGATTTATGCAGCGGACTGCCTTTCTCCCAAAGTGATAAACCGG…AGGTTGGTTTCACT; site = the 11-nt donor
A collection of sequences and their measured recombinant UMI read abundance (log10)

Please review the following examples before continuing.
biopolymer_sequence | recombinant UMI read abundance (log10)
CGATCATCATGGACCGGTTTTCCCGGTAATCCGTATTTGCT (site CGATGACCTAG) | 0
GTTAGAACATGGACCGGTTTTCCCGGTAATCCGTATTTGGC (site GTTTGAACTGC) | 0
GCGAAGACATGGACCGGTTTTCCCGGTAATCCGTATTTGGG (site GCGAAGTCTCC) | 0.439
AGGATGACATGGACCGGTTTTCCCGGTAATCCGTATTTGCA (site AGGACGACTTG) | 1.16
AGGGTTCCATGGACCGGTTTTCCCGGTAATCCGTATTTGGT (site AGGGTTCCTAC) | 0.793
TAATGAGCATGGACCGGTTTTCCCGGTAATCCGTATTTGCG (site TAATGAGCTCT) | 0.626
ACGTAGACATGGACCGGTTTTCCCGGTAATCCGTATTTGGG (site ACATAGACTCC) | 0.351
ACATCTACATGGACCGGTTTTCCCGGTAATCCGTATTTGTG (site ACATTTACTCA) | 0.319

For ACAACTACATGGACCGGTTTTCCCGGTAATCCGTATTTGTG (site ACAACTACTCA) the sequence record lists recombinant UMI read abundance (log10) as 0.844

Where do these numbers come from? They come from the supplement of paper PMC11208160.
